The reader will find reported IC50 values listed item by item below.
Target: α₁ receptors
Experiment: [3H]prazosin binding (α1 receptors), rat cerebral cortex membranes
Reported conditions: rat cerebral cortex crude membranes, [3H]prazosin 0.35 nM, 25°C 30 min; read-out: Receptor Binding IC50 (nM) α1
Where a name gives a salt, the structure may show the parent alone.
Experimental endpoint: IC50 (nM)

In [3]: df
Out[3]:
                                   compound  experimental_endpoint  measurement_units  assay_result
0  COc1ccccc1N1CCN(CCCNC(=O)c2cccc3c(=O)cc(-c4ccccc4)sc23)CC1 [Example 107]                   IC50                 nM            37
1  COc1ccccc1N1CCN(CCCNC(=O)c2cccc3c(=O)c(CO)c(-c4ccccc4)oc23)CC1 [Example 85]                   IC50                 nM            16
2  COc1ccccc1N1CCN(CCCN(C(C)=O)C(=O)c2cccc3c(=O)c(C)c(-c4ccccc4)oc23)CC1 [Example 81]                   IC50                 nM            13
3  COc1ccccc1N1CCN(CCNC(=O)c2cccc3c(=O)c(C)c(-c4ccccc4)oc23)CC1 [Example 13, monohydrochloride hemihydrate]                   IC50                 nM            68
4  COc1ccccc1N1CCN(CCCN(C(C)=O)c2cccc3c(=O)c(C)c(-c4ccccc4)oc23)CC1.Cl.O [Example 36, hydrochloride hydrate]                   IC50                 nM            18
5  COc1ccccc1N1CCN(CCCS(=O)(=O)c2cccc3c(=O)c(C)c(-c4ccccc4)oc23)CC1.Cl [Example 47, hydrochloride]                   IC50                 nM            36
